# experiment: yeast display, Sf9 membrane polyspecificity reagent, FACS + sequencing; frameworks hold sequencing errors
quantity: polyreactivity (PSR sort gate)

Reference set, count: 4
QVQLVESGGGLVQAGGSLRLSCAASGLTFYGNAMGWYRQAPGKERELVAAISSSGGTTYYADSVKGRFTISRDNEKNTVYLQMNSLKPEDTAVYYCNTRNTYFYAGYDYWGQGTQVTVSS ... low polyreactivity
QVQLVESGGGLVQAGGSLRLSCAATGRTFSGNAMGWYRQAPAKERELVAAISRSGGTTYYADSVKGRFTISRDNAKNPVYLQMNSLKPEDTAVYYCNRGWANWLGPDDYWGQGNQVTVSS ... high polyreactivity
QVQLVESGGGLVQAGGSLRLSCAASGSTFGFNVMGWYRPAPGKERELVAAIRYRDGSTYYADSVKGRFTISRDNAKNTVYLQMNSLKPEDTAVYYCNTRITQVGDYIYDYWGQGTQVTVSS ... low polyreactivity
QVQLVESGGGLVQAGGSLRLSCAASGFIFCINAMGWYRQAPGKERELVAAISRSGGRTYYADSVKGRFTISRDNAKNTVYLQMNSLKPEDTAVYYCAADKASYTNYDGDYWGQGTQVTVSS ... high polyreactivity

Note: attention shifts to another entry.
Exam item: GET /values?readout=polyreactivity (PSR sort gate)&item= QVQLVESGGGLVQAGGRLSLSCSASGSIFEQKAMGWYRKAPGKEREFVATISDGGGTYYADSVKGRFTISRDNAKNTVYLQINSLKPEDNAVYYCAATFGGSVFVYDYWGQGTQVTLSS
Marked response: low polyreactivity

---

# experiment: yeast display, Sf9 membrane polyspecificity reagent, FACS + sequencing; frameworks hold sequencing errors
quantity: polyreactivity (PSR sort gate)

In the examples that follow, each entry is paired with its recorded polyreactivity (PSR sort gate).
QVQLVESGGGLVQAGGSLRLSCAASGRIFRGNVMGWYRQAPGTERELVAAISGSGGSTYYADSVKGRFTISRDNAKNTVYLQMNSLKPEDTAVYYCAAGTAKTPRRSVGYWGQGTQVTVSS ... high polyreactivity
QVQHVESGGGLVQAGGSLRLSCAASGSIFRKNAMGWYRQAPGKERELVAAISSGGGGTYYADSVKGRFTISRDNAKNTVYLQMNSLKPEDTAVFYCNKREGKGGNTKYDYWGQGTQVTVSS ... low polyreactivity
QVQLVESGGGLVQAGGSLRLSCAASRLIFRGNDMGWYRQAPGKERELLAGINSSGSTNYADSVKGRFTISRDNAKNTVYLHMNSLKPEDTAVYYCAARAIVSFDYWGQGTQVTVSS ... low polyreactivity
QVQLVESGGGLVQAGGSLRFSCAASGSIFSVYAMGGYRQAPGKERELVASITSGGRTKYADSVKGRFTISRDNAKNTVYLQMNSLKPEDTAVYYCAAGTTWRYGGKYNYWGQGTQVTVSS ... low polyreactivity

Attention now shifts to the item below.
Exam item: For QVQLVESGGGLVQAGGSLRLSCAASGSTFGRNAMGWYIQAPGKERELVAAISNRGGRTYYADSVKARFTISRDNAKNTVYFQMNSLKPEDTAVYYCAAEHRVQQGDYWGQGTQVTVSS , what is its reported polyreactivity (PSR sort gate)?
Marked response: high polyreactivity

---

# experiment: yeast display, Sf9 membrane polyspecificity reagent, FACS + sequencing; frameworks hold sequencing errors
quantity: polyreactivity (PSR sort gate)

Field: example entries. Status: answers known.
QVQLVESGGGLVQAGGSLRLSCAASGLIFAGYTMGWYRQAPGKERELVAAISISGGSTYYADSVKGRFTISRDNAKNTVYLQMNSLKPEDTAVYYCASKRRSWPPTYYYWGQGTQVTVSS ... high polyreactivity
QVQLVESGGGLVQAGGSLRLTCAASGSTFRVNVMGWYRQAPGTERELVAAITTSGGSTYYADSVKGRFTISRDNAKNTVYLQMNSLKPEDTAVYYCKTTYPSGWGPDMDYWGQGTQVTVSS ... low polyreactivity
QVQLVESGGGLVQAGGSLRLSCAASVNIFSFYAMGWNRQAPGKERELVAAIIWSGGDTYYADSVKGRFTISLDNAKNTVYLQMNSLKPEDTAVYYCAAEYYYQYYPGGYDYWGQGSQVTVSS ... high polyreactivity
QVQLVESGGGLVQAGGSLRLSCAASGRTFSWYAMGWYRQAPGKEREFVAAITSGGSTYYADSVKGRFTISRDNAMNTVYLQMNSLKPEDTAVYYCAAYGYWGQGTQVTVSS ... high polyreactivity
QVQLVESGGGLVQAGGSLRLSCAASGIIFSVNAMGWYRQAPGKERELVAAISGSGGRTYYADSVKGRFTISRDNAKNTVYLQMNSLKPEDTAVYYCAARRTGKSYYGSRSGFDYWGQGTQVTVSS ... high polyreactivity

Moving on to the next sequence.
Exam item: Which polyreactivity (PSR sort gate) is reported for this sequence? QVQLVESGGGLVQAGGILRLSCDASGITFSTYAMGWYRQAPGKERELVAAITRSGGTYYADSVKGSFTISRDNAKNTVYLQMNSLKPEDTAVYYCAASYTVFGVRRYGYWGQGTQVTVSS
Marked response: high polyreactivity
